src = ChEMBL document CHEMBL3124881

Property: IC50; scope: individual compounds
System: Trypanosoma cruzi
Experiment: Antitrypanosomal activity against Trypanosoma cruzi (IRHOD/CO/2008/SN3) epimastigotes after 72 hrs by Neubauer chamber counting analysis
Format: functional, organism-based
valueKind: IC50 (µM)

1. Cn1nc(OCc2ccccc2)c2cc([N+](=O)[O-])ccc21; 17.6
2. CN(CCOCCn1nc(OCc2ccccc2)c2cc([N+](=O)[O-])ccc21)CCOCCn1nc(OCc2ccccc2)c2cc([N+](=O)[O-])ccc21; 26.6
3. COc1nn(CCOCCN(C)CCOCCn2nc(OC)c3cc([N+](=O)[O-])ccc32)c2ccc([N+](=O)[O-])cc12; 24.6
4. CNCCOCCn1nc(OCc2ccccc2)c2cc([N+](=O)[O-])ccc21; 19.1
5. COc1nn(CCOCCNCCOCCn2nc(OC)c3cc([N+](=O)[O-])ccc32)c2ccc([N+](=O)[O-])cc12; 31.2
6. CNCCOCCn1nc(OC)c2cc([N+](=O)[O-])ccc21; 26.7
7. COc1nn(C)c2ccc([N+](=O)[O-])cc12; 24.7
8. COc1nn(CCOCCN)c2ccc([N+](=O)[O-])cc12; 27.3

====

Experiment: Selectivity index, ratio of IC50 for African green monkey Vero cells to IC50 for Trypanosoma cruzi (IRHOD/CO/2008/SN3) epimastigotes
Assay type: toxicity, cell-based
Conditions: read-out: Ratio IC50
valueKind: selectivity ratio

1. COc1nn(CCOCCN)c2ccc([N+](=O)[O-])cc12; 3.2
2. COc1nn(C)c2ccc([N+](=O)[O-])cc12; 7.4
3. COc1nn(CCOCCN(C)CCOCCn2nc(OC)c3cc([N+](=O)[O-])ccc32)c2ccc([N+](=O)[O-])cc12; 4.1
4. Cn1nc(OCc2ccccc2)c2cc([N+](=O)[O-])ccc21; 11
5. CNCCOCCn1nc(OC)c2cc([N+](=O)[O-])ccc21; 3.3
6. CN(CCOCCn1nc(OCc2ccccc2)c2cc([N+](=O)[O-])ccc21)CCOCCn1nc(OCc2ccccc2)c2cc([N+](=O)[O-])ccc21; 4.8
7. CNCCOCCn1nc(OCc2ccccc2)c2cc([N+](=O)[O-])ccc21; 11.2
8. COc1nn(CCOCCNCCOCCn2nc(OC)c3cc([N+](=O)[O-])ccc32)c2ccc([N+](=O)[O-])cc12; 0.5

====

Test: Selectivity index, ratio of IC50 for African green monkey Vero cells to IC50 for Trypanosoma cruzi (IRHOD/CO/2008/SN3) amastigotes
Format: toxicity, cell-based
Conditions: read-out: Ratio IC50
Property: selectivity ratio; scope: individual molecules
valueKind: selectivity ratio

1. COc1nn(CCOCCN)c2ccc([N+](=O)[O-])cc12; 3.3
2. CNCCOCCn1nc(OC)c2cc([N+](=O)[O-])ccc21; 3.7
3. COc1nn(CCOCCN(C)CCOCCn2nc(OC)c3cc([N+](=O)[O-])ccc32)c2ccc([N+](=O)[O-])cc12; 4.6
4. COc1nn(CCOCCNCCOCCn2nc(OC)c3cc([N+](=O)[O-])ccc32)c2ccc([N+](=O)[O-])cc12; 0.6
5. Cn1nc(OCc2ccccc2)c2cc([N+](=O)[O-])ccc21; 13.7
6. CNCCOCCn1nc(OCc2ccccc2)c2cc([N+](=O)[O-])ccc21; 12.9
7. COc1nn(C)c2ccc([N+](=O)[O-])cc12; 5.6
8. CN(CCOCCn1nc(OCc2ccccc2)c2cc([N+](=O)[O-])ccc21)CCOCCn1nc(OCc2ccccc2)c2cc([N+](=O)[O-])ccc21; 7.8
